Consider the following binders; for each one, report its TGFb2 IC50 (SMAD3 phosphorylation in CMVICs, AlphaLISA).
MEASURED ON: T1, TGFβ2 (R&D Systems)
T1 sequence (P61812 303-414, species assumed, looked up): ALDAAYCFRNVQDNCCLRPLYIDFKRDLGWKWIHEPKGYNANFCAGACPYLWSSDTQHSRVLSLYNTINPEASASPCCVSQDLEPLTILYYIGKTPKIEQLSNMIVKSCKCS
PROCEDURE DETAILS: cell-based or functional assay
Give bare numbers, in µg/mL.

Consider the worked cases shown below.
[
  {
    "BINDER": "Caninized anti-TGFβ1,2,3 antibody VH5.6 - VL2 (antibody, V domains shown) VH: EVQLVESGGDLVKPGGSLRLSCVASGFTFSSNVISWVRQAPGQGLEWMGGVIPIVDIANYAQRFKGRVTITADESTSTTYMELSSLRSEDTAVYYCASTLGLVLDAMDYWGQGTLVTVSS VL: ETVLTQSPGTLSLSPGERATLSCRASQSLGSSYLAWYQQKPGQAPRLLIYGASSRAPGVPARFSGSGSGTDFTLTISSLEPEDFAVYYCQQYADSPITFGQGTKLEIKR",
    "UNITS LABEL": "µg/mL",
    "OBSERVED": 0.691
  },
  {
    "BINDER": "Felinized anti-TGFβ1,2,3 antibody VH3.8 - VL7 (antibody, V domains shown) VH: QVQLVQSGAEVKKPGSSVKVSCKASGYTFSSNVISWVRQAPGKGLQWVAGVIPIVDIANYAQRFKGRFTISIDNSKNTLYLQMNSLKTEDTATYYCASTLGLVLDAMDYWGQGTLVTVSS VL: DIVLTQPPSLSVNLGQTARITCRASQSLGSSYLAWYQQKPGQAPKLVTYGASSRAPGIPDRFSGTNSGITATLTISGARAEDEADYYCQQYADSPITFGQGTKLEIKR",
    "UNITS LABEL": "µg/mL",
    "OBSERVED": 2.67
  },
  {
    "BINDER": "Caninized anti-TGFβ1,2,3 antibody VH5.10 - VL3 (antibody, V domains shown) VH: EVQLVESGGDLVKPGGSLRLSCVASGFTFSSNVISWVRQAPGQGLEWMGGVIPIVDIANYAQRFKGRVTLTADTSTNTVYMELSNLRTEDTAVYYCARTLGLVLDAMDYWGQGTLVTVSS VL: EIVMTQSPASLSLSQEEKVTITCRASQSLGSSYLAWYQQKPGQAPKLLIYGASSRAPGVPSRFSGSGSGTDFSFTISSLEPEDVAVYYCQQYADSPITFGQGTKLEIKR",
    "UNITS LABEL": "µg/mL",
    "OBSERVED": 5.47
  },
  {
    "BINDER": "Felinized anti-TGFβ1,2,3 antibody VH3.2 - VL1 (antibody, V domains shown) VH: DVQLVESGGDLVKPGGSLRLTCVASGYTFSSNVMHWVRQAPGKGLQWVAYVIPIVDIAYYADSVKGRFTISIDNSKNTLYLQMNSLKTEDTATYYCARTLGLVLDAMDYWGQGTLVTVSS VL: ETVLTQSPGTLSLSPGERATLSCRASQSLGSSYLAWYQQKPGQAPRLLIYGASSRAPGIPDRFSGSGSGTDFTLTISRLEPEDFAVYYCQQYADSPITFGQGTKLEIKR",
    "UNITS LABEL": "µg/mL",
    "OBSERVED": 0.19
  },
  {
    "BINDER": "Caninized anti-TGFβ1,2,3 antibody VH4.7 - VL2 (antibody, V domains shown) VH: QVQLVQSGAEVKKPGSSVKVSCKASGYTFSSNVISWVRQAPGKGLQWVGGVIPIVDIANYAQRFKGRVTITADESTSTTYMELSSLRSEDTAVYYCASTLGLVLDAMDYWGQGTLVTVSS VL: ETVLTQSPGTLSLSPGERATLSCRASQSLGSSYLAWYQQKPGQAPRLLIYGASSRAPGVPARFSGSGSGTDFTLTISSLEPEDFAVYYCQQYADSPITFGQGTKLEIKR",
    "UNITS LABEL": "µg/mL",
    "OBSERVED": 0.81
  },
  {
    "BINDER": "Felinized anti-TGFβ1,2,3 antibody VH2.8 - VL6 (antibody, V domains shown) VH: QVQLVQSGAEVKKPGSSVKVSCKASGYTFSSNVISWVRQTPAQGFEWMGGVIPIVDIANYAQRFKGRLVLTADTSTNTAYMELRSLKSADTAVYYCASTLGLVLDAMDYWGQGTLVTVSS VL: QSVLTQPPSVSGSLGQRVTISCRASQSLGSSYLAWYQQVPGRAPRLLIYGASSRAPGIPDRFSGSKSGTSGSLTITGLEADDEADYYCQQYADSPITFGGGTHLTVLG",
    "UNITS LABEL": "µg/mL",
    "OBSERVED": 0.547
  }
]

Dear colleague, could you send me TGFb2 IC50 (SMAD3 phosphorylation in CMVICs, AlphaLISA) for each of the items below? Thanks.
1. Caninized anti-TGFβ1,2,3 antibody VH3.5 - VL2 (antibody, V domains shown) VH: EVQLVQSAAEVKKPGASVKVSCKTSGYIFISNVISWVQQAPGAGLEWMGGVIPIVDIANYAQRFKGRVTLTADTSTNTVYMELSNLRTEDTAVYYCASTLGLVLDAMDYWGQGTLVTVSS VL: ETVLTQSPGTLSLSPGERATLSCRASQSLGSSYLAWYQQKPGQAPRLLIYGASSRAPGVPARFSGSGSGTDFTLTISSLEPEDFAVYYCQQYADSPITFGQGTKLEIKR
2. human: feline GC1008 chimera felchimGC1008 (antibody, V domains shown) VH: QVQLVQSGAEVKKPGSSVKVSCTASGYTPSSNVISNVRQAPGQGLENNGGVIPIVDIANYAQRPKGRVTITADESTSTTYHELSSLRSEDTAVYYCASTLGLVLDAMDYHGQGTLVTVSS VL: ETVLTQSPGTLSLSPGERATLSCRASQSLGSSYLAWYQQKPGQAPRLLIYGASSRAPGIPDRFSGSGSGTDFTLTISRLEPEDFAVYYCQQYADSPITFGQGTRLEIKR
3. Caninized anti-TGFβ1,2,3 antibody VH4.5 - VL1 (antibody, V domains shown) VH: EVQLVESGGDLVKPAGSLRLSCVASGYTFSSNVMSWVRQAPGKGLQWVGYVIPIVDIANYADAVKGRFTISRDNAKNTLYLQMNSLRVEDTAVYYCTRTLGLVLDAMDYWGQGTLVTVSS VL: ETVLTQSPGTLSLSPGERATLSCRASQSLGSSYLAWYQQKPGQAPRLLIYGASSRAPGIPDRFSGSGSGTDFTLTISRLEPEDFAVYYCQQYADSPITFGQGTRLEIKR
4. Felinized anti-TGFβ1,2,3 antibody VH3.2 - VL3 (antibody, V domains shown) VH: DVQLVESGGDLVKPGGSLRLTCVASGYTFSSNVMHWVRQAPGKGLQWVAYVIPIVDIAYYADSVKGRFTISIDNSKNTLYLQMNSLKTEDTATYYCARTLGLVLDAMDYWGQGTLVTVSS VL: EIQMTQSPSSLSASPGDRVTITCRASQSLGSSYLAWYQQKPGKVPKLLIYGASSRAPGVPSRFSGSGSGTDFTLTISSLEPEDAATYYCQQYADSPITFGQGTKLEIKR

1. 9.41
2. 0.167
3. 0.609
4. 0.14
